- Test system: T-47D cells
- testDescription: Golgi fragmentation (Giantin/GM130 immunofluorescence)
- Assay type: cell-based
reportedMetric: effect on methylene blue (MB)-induced Golgi fragmentation

Some compounds with recorded effect on methylene blue (MB)-induced Golgi fragmentation:
                                   compound          assayvalue
0  O=C1Nc2ccccc2/C1=C1/Nc2ccccc2/C1=N\O [indirubin-3′-monoxime]  completely blocked
1  C/C1=C/C(=O)O[C@@H]2C[C@@H](CC[C@H](C)/C=C\CC1)O[C@@](O)([C@@H]1CSC(=O)N1)C2 [Latrunculin B]  completely blocked
2  O=c1cc(N2CCOCC2)oc2c(-c3cccc4c3sc3ccccc34)cccc12 [NU7441]           ruled out
3  CC[C@H](CO)Nc1nc(NCc2ccccc2)c2ncn(C(C)C)c2n1 [(R)-Roscovitine]           ruled out

Next, consider the following compound.
Q) Which measured effect on methylene blue (MB)-induced Golgi fragmentation value corresponds to O=C1Nc2ccccc2/C1=C1/Nc2ccccc2/C1=N\OCC(O)CO (stereo not drawn) [indirubin-e804] ?
A) completely blocked

Ref: patent US12663426B2
